assay: Plasma pharmacokinetics of AZD8186 and metabolite M1; format: in vivo, human; conditions: human, plasma, oral, terminal elimination half-life, overall range, after a single dose
quantity: half-life

Give me measured half-life, please, for this compound: C[C@@H](Nc1cc(F)cc(F)c1)c1cc(C(=O)N(C)C)cc2c(=O)cc(N3CCOCC3)oc12 [AZD8186]
1.4 to 13.8 h
